These data points were gathered from PubChem BioAssay AID2060908.

System: 186277-243-T-J2-PDC complex spheroids, viability;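 further: spheroids exposed to compounds for 7 days before viability read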
Assay: Anticancer human tumor 186277-243-T-J2-PDC patient-derived colon adenocarcinoma cell line growth inhibition [RAS]; active means viability on the fitted dose curve at most 10% of control; inactive means the rest
Conditions: second compound 0.00949 µM; first compound 1 µM
In this exercise, the only acceptable responses are active, inactive

Below are worked cases with known answers.
Compound	Label
Cc1nc(N2CCC3(CC2)COC(C)C3N)c(CO)nc1Sc1ccnc(N)c1Cl (centres undefined) + CCn1c(-c2cccnc2C(C)OC)c2c3cc(ccc31)N1CCOC(CC(NC(=O)C(C(C)C)N(C)C(=O)C3(F)CCN(C(=O)C#CC(C)(C)N(C)C)CC3)C(=O)N3CCCC(N3)C(=O)OCC(C)(C)C2)C1	inactive
O=C(c1ccc(F)c(F)c1Nc1ccc(I)cc1F)N1CC(O)([C@@H]2CCCCN2)C1 + CCn1c(-c2cc(N3CCN(C)CC3)cnc2C(C)OC)c2c3cc(ccc31)-c1csc(n1)CC(NC(=O)C1CC1C)C(=O)N1CCCC(N1)C(=O)OCC(C)(C)C2	active
C=CC(=O)Nc1cc(Nc2nccc(-c3cn(C)c4ccccc34)n2)c(OC)cc1N(C)CCN(C)C + CCn1c(-c2cc(N3CCN(C)CC3)cnc2C(C)OC)c2c3cc(ccc31)-c1csc(n1)CC(NC(=O)C1CC1C)C(=O)N1CCCC(N1)C(=O)OCC(C)(C)C2	active

Fill in: this test's call for CC(=O)OC12COC1CC(O)C1(C)C(=O)C(O)C3=C(C)C(OC(=O)C(O)C(NC(=O)OC(C)(C)C)c4ccccc4)CC(O)(C(OC(=O)c4ccccc4)C21)C3(C)C (centres undefined) + CCn1c(-c2cccnc2C(C)OC)c2c3cc(ccc31)N1CCOC(CC(NC(=O)C(C(C)C)N(C)C(=O)C3(F)CCN(C(=O)C#CC(C)(C)N(C)C)CC3)C(=O)N3CCCC(N3)C(=O)OCC(C)(C)C2)C1 is ___
active
